# Organism: Oryctolagus cuniculus
# protocolSummary: Relative binding affinity at rabbit angiotensin […] receptor in aorta strips under exclusion of long wavelength UV light relative to control
# Format: tissue-based
Non-standard residues stand in square brackets, D forms with d. Residues, ends and D or L forms follow the SMILES beside them. Phe(3,5-I2,4-NH2) = Nc1c(I)cc(C[C@H](N)C(=O)O)cc1I; Phe(4-N2+) = N#[N+]c1ccc(C[C@H](N)C(=O)O)cc1; Sar = CNCC(=O)O
Listing of entries alongside the reported RBA.
# output: number + unit

Example cases with answers are listed next.
CNCC(=O)N[C@@H](CCCNC(=N)N)C(=O)N[C@H](C(=O)N[C@@H](Cc1ccc(O)cc1)C(=O)N[C@H](C(=O)N[C@@H](Cc1cnc[nH]1)C(=O)N1CCC[C@H]1C(=O)N[C@@H](Cc1ccc([N+]#N)cc1)C(=O)O)C(C)C)C(C)C | 13%
CNCC(=O)N[C@@H](CCCNC(=N)N)C(=O)N[C@H](C(=O)N[C@@H](Cc1ccc([N+]#N)cc1)C(=O)N[C@H](C(=O)N[C@@H](Cc1cnc[nH]1)C(=O)N1CCC[C@H]1C(=O)N[C@@H](Cc1ccc([N+]#N)cc1)C(=O)O)C(C)C)C(C)C (H-[Sar]RV[Phe(4-N2+)]VHP[Phe(4-N2+)]-OH) | 1.3%
CNCC(=O)N[C@@H](CCCNC(=N)N)C(=O)N[C@H](C(=O)N[C@@H](Cc1ccc(O)cc1)C(=O)N[C@H](C(=O)N[C@@H](Cc1cnc[nH]1)C(=O)N1CCC[C@H]1C(=O)N[C@@H](Cc1ccc(N=[N+]=[N-])cc1)C(=O)O)C(C)C)C(C)C | 31%

Now for a further compound.
q: Look up and report measured RBA for this entry: CNCC(=O)N[C@@H](CCCNC(=N)N)C(=O)N[C@H](C(=O)N[C@@H](Cc1cc(I)c(N)c(I)c1)C(=O)N[C@H](C(=O)N[C@@H](Cc1cnc[nH]1)C(=O)N1CCC[C@H]1C(=O)N[C@@H](Cc1ccccc1)C(=O)O)C(C)C)C(C)C (H-[Sar]RV[Phe(3,5-I2,4-NH2)]VHPF-OH)
a: 2.7%

* * *

# Species: Oryctolagus cuniculus
# protocolSummary: Relative binding affinity at rabbit angiotensin […] receptor in aorta strips under exclusion of long wavelength UV light relative to control
# Format: tissue-based
Non-standard residues stand in square brackets, D forms with d. Residues, ends and D or L forms follow the SMILES beside them. Phe(4-NO2) = N[C@@H](Cc1ccc([N+](=O)[O-])cc1)C(=O)O; Phe(4-N3) = [N-]=[N+]=Nc1ccc(C[C@H](N)C(=O)O)cc1; Phe(4-N2+) = N#[N+]c1ccc(C[C@H](N)C(=O)O)cc1; Phe(4-NH2) = Nc1ccc(C[C@H](N)C(=O)O)cc1; Sar = CNCC(=O)O
Label rule, in plain words: RBA of 0.7% and up is true, under 0.7% is false.

Known results for compounds:
CNCC(=O)N[C@@H](CCCNC(=N)N)C(=O)N[C@H](C(=O)N[C@@H](Cc1ccc(O)cc1)C(=O)N[C@H](C(=O)N[C@@H](Cc1cnc[nH]1)C(=O)N1CCC[C@H]1C(=O)N[C@@H](Cc1cc(I)c(N)c(I)c1)C(=O)O)C(C)C)C(C)C | true
CNCC(=O)N[C@@H](CCCNC(=N)N)C(=O)N[C@H](C(=O)N[C@@H](Cc1ccc(N=[N+]=[N-])cc1)C(=O)N[C@H](C(=O)N[C@@H](Cc1cnc[nH]1)C(=O)N1CCC[C@H]1C(=O)N[C@@H](Cc1ccccc1)C(=O)O)C(C)C)C(C)C (H-[Sar]RV[Phe(4-N3)]VHPF-OH) | false

q: Decide: RBA of CNCC(=O)N[C@@H](CCCNC(=N)N)C(=O)N[C@H](C(=O)N[C@@H](Cc1ccc(N)cc1)C(=O)N[C@H](C(=O)N[C@@H](Cc1cnc[nH]1)C(=O)N1CCC[C@H]1C(=O)N[C@@H](Cc1ccccc1)C(=O)O)C(C)C)C(C)C (H-[Sar]RV[Phe(4-NH2)]VHPF-OH) >= 0.7%?
a: true

q: Answer whether RBA of CNCC(=O)N[C@@H](CCCNC(=N)N)C(=O)N[C@H](C(=O)N[C@@H](Cc1ccc([N+]#N)cc1)C(=O)N[C@H](C(=O)N[C@@H](Cc1cnc[nH]1)C(=O)N1CCC[C@H]1C(=O)N[C@@H](Cc1ccccc1)C(=O)O)C(C)C)C(C)C (H-[Sar]RV[Phe(4-N2+)]VHPF-OH) is greater than or equal to 0.7%.
a: false

q: Tell me whether RBA is at least 0.7% here: `CNCC(=O)N[C@@H](CCCNC(=N)N)C(=O)N[C@H](C(=O)N[C@@H](Cc1ccc(O)cc1)C(=O)N[C@H](C(=O)N[C@@H](Cc1cnc[nH]1)C(=O)N1CCC[C@H]1C(=O)N[C@@H](Cc1ccc([N+](=O)[O-])cc1)C(=O)O)C(C)C)C(C)C`
a: true

q: Tell me whether RBA is at least 0.7% here: CNCC(=O)N[C@@H](CCCNC(=N)N)C(=O)N[C@H](C(=O)N[C@@H](Cc1ccc(N=[N+]=[N-])cc1)C(=O)N[C@H](C(=O)N[C@@H](Cc1cnc[nH]1)C(=O)N1CCC[C@H]1C(=O)N[C@@H](Cc1ccc(N=[N+]=[N-])cc1)C(=O)O)C(C)C)C(C)C (H-[Sar]RV[Phe(4-N3)]VHP[Phe(4-N3)]-OH)
a: false

q: Check the entry CNCC(=O)N[C@@H](CCCNC(=N)N)C(=O)N[C@H](C(=O)N[C@@H](Cc1ccc([N+](=O)[O-])cc1)C(=O)N[C@H](C(=O)N[C@@H](Cc1cnc[nH]1)C(=O)N1CCC[C@H]1C(=O)N[C@@H](Cc1ccccc1)C(=O)O)C(C)C)C(C)C (H-[Sar]RV[Phe(4-NO2)]VHPF-OH) : does RBA equal or exceed 0.7%?
a: false
